METHOD_NOTES: small molecules captured by biotinylated probe aFSTL3 – biochemical, small-molecule microarray, fluorescence 635/667, stem cell growth factor project, primary screen (AID 1064);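 note: measures binding of the biotinylated anti-FSTL3 antibody to printed compounds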
CONDITION_SUMMARY: higher = more signal
Overview of recorded composite z-score for various compounds
Quick one: just the number, no unit, thanks!

Look up composite z-score: CCCCCCCCCCC(O)C1C=CC2C(=O)NC(=O)C2N1Nc1ccccn1 (stereo not given) 0.444

Another compound to check: CCCCC(CC)C(O)C1C=CC2C(=O)NC(=O)C2N1Nc1ccccn1 (stereo not given) -0.252

---

METHOD_NOTES: calcein-AM signal in unstimulated myeloma cells – cell-based, calcein-AM fluorescence, 48 h, PK04 Diversity Set, profiling panel (AID 1166);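 note: cells grown under basal conditions without added stimulus; test concentration not given here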
CONDITION_SUMMARY: RPMI8226 myeloma viability, higher = more signal
Attribute: z-score
Give only the figure.

Some compounds with known z-score results, for comparison:
COCCOC(=O)N1C(=O)[C@@]2(c3cc(C#CC4(O)CCCCCC4)ccc31)[C@H](C(=O)NC[C@H](O)c1ccccc1)[C@H]1C(=O)O[C@H](c3ccccc3)[C@H](c3ccccc3)N1[C@@H]2c1ccc(OCCO)cc1 : -1.91
COC(=O)c1ccc(OC)c(/C=C\CC(CCc2ccccc2)OC(=O)c2ccncc2)c1 (centres undefined) : -2.2
CN(C)C(=O)[C@]1(Cc2ccccc2N=[N+]=[N-])N=C(c2ccc(OCCCO)cc2)O[C@@H]1c1ccccc1CN=[N+]=[N-] : -3.03
COc1ccc([Si](C)(C)[C@@H]2[C@@H](CC(=O)N3Cc4ccccc4C[C@H]3CO)O[C@]3(C(=O)N(Cc4cccc(N5CCCCC5=O)c4)c4ccccc43)[C@H]2C)cc1 : -3.36
COC(=O)[C@@]1(Cc2ccc(F)cc2)[C@@H]2[C@@H](CC(=O)[C@H]2CC(=O)C(=O)N2CCCC2)CN1C(=O)c1ccccc1 : -1.73

Which z-score value belongs to `CCCC=C(CCC)[C@@H](NS(=O)(=O)c1ccccc1)c1ccc(C(F)(F)F)cc1` ? -4.06

Another compound: `COC(=O)[C@@]1(Cc2ccc(OC)cc2)[C@H]2c3cc(C(=O)N(C)C)n(Cc4cc(F)c(F)c(F)c4)c3C[C@H]2CN1C(=O)c1ccccc1` -2.93

Next compound: `COC(=O)C(CC#Cc1ccc2c(c1)[C@]1(C(=O)N2)[C@H](c2ccccc2OCCO)N2[C@H](c3ccccc3)[C@H](c3ccccc3)OC(=O)[C@H]2[C@@H]1C(=O)Nc1nc2ccccc2s1)C(=O)OC` -1.74

Next entry: `CCCCCCC#C[Si](O[C@H](c1ccccc1)c1cn(Cc2cccc(Cl)c2)nn1)(C(C)C)C(C)C` -0.695

And for `COC(=O)C(CC#Cc1ccc2c(c1)[C@]1(C(=O)N2)[C@H](c2ccc(O)cc2)N2[C@H](c3ccccc3)[C@H](c3ccccc3)OC(=O)[C@H]2[C@@H]1C(=O)O)C(=O)OC` ? -0.892

---

METHOD_NOTES: probe aXIP binding to arrayed compounds – biochemical, NeuroSMM set, 635/667 nm fluorescence, primary screen (AID 1119);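 note: probe is the protein aXip251-270 applied at 1 µg/mL to compound-printed slides; binding of probe to printed compounds measured as 667 nm fluorescence plus signal to noise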
CONDITION_SUMMARY: small-molecule microarray, higher = more signal, called active from +8 up or from −8 down
composite Z-score values by entry
Write the number on its own, no unit after it.

[N-]=[N+]=NCc1ccccc1[C@H]1OC(c2ccc(OCCCO)cc2)=N[C@@]1(Cc1ccccc1N=[N+]=[N-])C(=O)NCCN1CCOCC1 : -0.514
COC(=O)C(CC#Cc1ccc2c(c1)[C@]1(C(=O)N2)[C@H](C(=O)N2CCc3cc(OC)c(OC)cc3C2)[C@H]2C(=O)O[C@H](c3ccccc3)[C@H](c3ccccc3)N2[C@@H]1c1ccc(O)cc1)C(=O)OC : -0.0536

Given the entry `COC(=O)[C@@]1(Cc2ccc(OC)cc2)[C@H]2c3cc(C(=O)N(C)C)n(CCF)c3C[C@H]2CN1C(=O)c1ccccc1` , report its measured composite Z-score. 1.22

Another: `[N-]=[N+]=NCc1ccccc1C[C@]1(C(=O)NCCN2CCOCC2)N=C(c2ccc(OCCCO)cc2)O[C@H]1c1ccccc1` 0.356

Entry `O=C(CS)NCCCCCNC(=O)[C@@H]1C[C@@H]2C(=O)N3CCC[C@H]3C(=O)N2[C@@H]1c1ccc(O)cc1` please 0.647

Repeat for the following compound: `COC(=O)[C@]1(Cc2ccccc2CN=[N+]=[N-])N=C(c2ccc(OCCCO)cc2)O[C@@H]1c1ccccc1` 0.667

Now this one: `CC(C)C[C@@H]1NC(=O)[C@@H]2C[C@H](C(=O)NCCCC[N+](C)(C)C)[C@H](c3cccc(OCCO)c3)N2C1=O` 0.0578

Follow-up entry: `Cc1ccc(S[C@]2(C(=O)O)CC(=O)N(C3CCCCC3)[C@@H]2c2ccc(CO)cc2)cc1` 0.842
